SYSTEM UNDER TEST: Beta-galactosidase (Escherichia coli) (UniProt Q8VNN2)
Sequence (Q8VNN2 whole entry, looked up): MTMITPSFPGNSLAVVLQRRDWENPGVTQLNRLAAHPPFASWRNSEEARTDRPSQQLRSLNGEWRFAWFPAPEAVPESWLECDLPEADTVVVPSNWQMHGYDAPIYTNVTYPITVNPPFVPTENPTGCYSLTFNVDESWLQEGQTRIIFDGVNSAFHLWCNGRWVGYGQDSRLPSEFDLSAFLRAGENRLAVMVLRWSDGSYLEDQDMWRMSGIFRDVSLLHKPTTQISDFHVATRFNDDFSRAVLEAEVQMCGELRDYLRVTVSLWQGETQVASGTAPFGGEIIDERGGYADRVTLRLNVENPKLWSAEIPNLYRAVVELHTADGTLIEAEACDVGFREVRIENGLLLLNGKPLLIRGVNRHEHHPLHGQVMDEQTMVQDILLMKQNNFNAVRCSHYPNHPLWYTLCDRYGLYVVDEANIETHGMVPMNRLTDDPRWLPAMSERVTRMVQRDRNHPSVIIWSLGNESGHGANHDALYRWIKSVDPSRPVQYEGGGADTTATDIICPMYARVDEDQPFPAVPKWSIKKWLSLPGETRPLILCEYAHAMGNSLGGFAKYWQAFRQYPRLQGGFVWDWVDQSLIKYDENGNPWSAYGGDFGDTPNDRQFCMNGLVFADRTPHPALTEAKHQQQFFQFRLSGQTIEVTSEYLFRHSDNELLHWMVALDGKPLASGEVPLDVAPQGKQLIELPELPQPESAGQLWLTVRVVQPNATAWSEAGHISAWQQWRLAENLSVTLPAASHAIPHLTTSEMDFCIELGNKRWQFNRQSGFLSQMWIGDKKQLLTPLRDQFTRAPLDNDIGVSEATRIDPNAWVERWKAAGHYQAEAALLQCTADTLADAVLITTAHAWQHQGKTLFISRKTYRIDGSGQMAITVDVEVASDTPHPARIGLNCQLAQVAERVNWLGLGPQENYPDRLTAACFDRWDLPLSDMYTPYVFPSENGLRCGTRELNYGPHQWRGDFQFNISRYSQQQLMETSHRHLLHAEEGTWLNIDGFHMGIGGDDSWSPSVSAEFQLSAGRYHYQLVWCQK
ASSAY METHOD TEXT: potency against CXCR6 with APJ panel – cell-based, beta-arrestin, DiscoveRx, uHTS hits, dose response (AID 624129)
STUDY CONDITIONS: CXCR6 beta-arrestin (DiscoveRx) antagonist cell assay, b-galactosidase, dose range 1, mean IC50 across replicates
Each entry below carries its recorded IC50.

Quick one: IC50 for O=[N+]([O-])/C=C/c1c(Cl)cccc1Cl ?
> 80 µM

Quick one: IC50 for C/C(=N\NC(=O)Cn1c(-c2ccccn2)nc2ccccc21)c1ccccc1 ?
34 µM

Quick one: IC50 for O=C1C=CC2(C=C1)O[C@H](Cc1ccccc1)[C@@H](Cc1ccccc1)O2 ?
> 80 µM

Quick one: IC50 for CC(C)c1ccc(O)c(NC(=S)NC(=O)c2cccnc2)c1 ?
51.9 µM

Quick one: IC50 for Cc1cccc(C)c1NC(=O)c1nc(S(=O)(=O)Cc2ccccc2)ncc1Cl ?
> 80 µM

Quick one: IC50 for COc1ccc(C)c(-n2c(=O)n(Cc3ccccc3)c(=O)c3[nH]cnc32)c1 ?
8.42 µM

Quick one: IC50 for CCOC(=O)c1c(C)oc2c1c(C=NCc1ccccn1)c(O)c1ccccc12 ?
> 80 µM

----------
SYSTEM UNDER TEST: Apelin receptor (Homo sapiens) (UniProt P35414)
ASSAY METHOD TEXT: potency against CXCR6 with APJ panel – cell-based, beta-arrestin, DiscoveRx, uHTS hits, dose response (AID 624129)
STUDY CONDITIONS: CXCR6 beta-arrestin (DiscoveRx) antagonist cell assay, APJ, dose range 1, mean IC50 across replicates
pIC50: −log10 of the molar value.
Respond with YES for pIC50 values of 5 and above, NO for values below.

| MOLECULE | CLASS ASSIGNMENT |
| --- | --- |
| O=[N+]([O-])c1c(Nc2ccccc2O)cc(Cl)c2nonc12 | NO |

Given the entry O=C1C=CC(=O)N1c1cccc(-c2ccccc2)c1 , answer whether its pIC50 meets or surpasses 5.
NO

Given the entry Cc1cc(Cl)n2c(nc3cc(F)c(F)cc32)c1C#N , answer whether its pIC50 meets or surpasses 5.
NO

Given the entry COc1ccc(NC(=O)/C(Cl)=C(/Cl)S(=O)(=O)Cc2ccc(C)cc2)cn1 , answer whether its pIC50 meets or surpasses 5.
YES

Given the entry CS(=O)(=O)c1sc(C#N)c2c1C(=O)CC(c1ccccc1)C2 (stereo unspecified) , answer whether its pIC50 meets or surpasses 5.
NO

Given the entry CNC(=O)c1nnsc1S(=O)(=O)c1ccc(Cl)cc1 , answer whether its pIC50 meets or surpasses 5.
NO

Given the entry CN(O)C(=S)c1ccccc1 , answer whether its pIC50 meets or surpasses 5.
YES

Given the entry Oc1c(Br)cc(Br)cc1C=NCc1ccccc1 , answer whether its pIC50 meets or surpasses 5.
NO

Given the entry CN(C(=O)CSC1=Nc2ccccc2C2=NC(c3ccccc3)C(=O)N12)C1CCCCC1 (stereo unspecified) , answer whether its pIC50 meets or surpasses 5.
NO

----------
SYSTEM UNDER TEST: C-X-C chemokine receptor type 6 (Homo sapiens) (UniProt O00574)
Sequence (O00574 whole entry, looked up): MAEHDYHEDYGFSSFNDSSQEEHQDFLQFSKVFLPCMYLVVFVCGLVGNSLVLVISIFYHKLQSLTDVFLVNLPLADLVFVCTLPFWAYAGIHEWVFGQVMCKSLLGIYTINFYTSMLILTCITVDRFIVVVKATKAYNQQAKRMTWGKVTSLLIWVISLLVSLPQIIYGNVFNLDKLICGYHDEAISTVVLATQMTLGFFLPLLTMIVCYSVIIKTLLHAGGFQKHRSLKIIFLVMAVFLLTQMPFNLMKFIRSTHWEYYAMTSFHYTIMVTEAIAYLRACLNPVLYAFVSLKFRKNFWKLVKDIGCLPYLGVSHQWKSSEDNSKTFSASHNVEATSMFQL
ASSAY METHOD TEXT: potency against CXCR6 with APJ panel – cell-based, beta-arrestin, DiscoveRx, uHTS hits, dose response (AID 624129)
STUDY CONDITIONS: CXCR6 beta-arrestin (DiscoveRx) antagonist cell assay, CXCR6, dose range 1
Activity calls are given as the source filed them. How the calls were made is not given here.
Pick one: active, inactive

| COMPOUND | SYSTEM UNDER TEST | CLASS ASSIGNMENT |
| --- | --- | --- |
| O=C(NC(=S)Nc1ccccc1O)c1cccnc1 | C-X-C chemokine receptor type 6 (Homo sapiens) (UniProt O00574) | inactive |
| COc1cccc(-c2nnc(NC(=O)c3ccc(Cl)s3)o2)c1 | C-X-C chemokine receptor type 6 (Homo sapiens) (UniProt O00574) | inactive |
| CC(Oc1cccc(Br)c1)C(=O)NNC(=O)c1ccccn1 (stereo not given) | C-X-C chemokine receptor type 6 (Homo sapiens) (UniProt O00574) | inactive |
| O=C(Nc1ccccc1)c1ccc(Nc2c([N+](=O)[O-])cc([N+](=O)[O-])c3ccccc23)cc1 | C-X-C chemokine receptor type 6 (Homo sapiens) (UniProt O00574) | inactive |
| COc1cc(/C=C/[N+](=O)[O-])ccc1OC(=O)c1cccnc1 | C-X-C chemokine receptor type 6 (Homo sapiens) (UniProt O00574) | inactive |

Short answer needed: outcome of this test for Cc1ccc(NS(=O)(=O)c2cc([N+](=O)[O-])ccc2NNC(=S)Nc2cc(C)ccc2C)c(C)c1 ?
inactive

Short answer needed: outcome of this test for CCc1ccc(NC(=O)c2nc(S(=O)(=O)Cc3ccccc3)ncc2Cl)cc1 ?
inactive

Short answer needed: outcome of this test for O=C(NNc1ccc([N+](=O)[O-])cc1[N+](=O)[O-])c1ccco1 ?
inactive

Short answer needed: outcome of this test for C=CC[C@H](CC(=O)N(CCO)Cc1ccccc1)C(=O)NC[C@H](OC(=O)[C@@H](CC=C)CC(=O)OC(C)(C)C)c1ccccc1 ?
inactive

Short answer needed: outcome of this test for Cc1ccc(NC(=O)c2nc(S(=O)(=O)Cc3ccccc3)ncc2Cl)cc1 ?
inactive

Short answer needed: outcome of this test for FC(F)(F)c1cnc(NNC(=S)Nc2cccnc2)c(Cl)c1 ?
inactive

Short answer needed: outcome of this test for Oc1ccc(Cl)c2cccnc12 ?
active

Short answer needed: outcome of this test for CCOc1ccc(Nc2ccc([N+](=O)[O-])c3nonc23)cc1 ?
inactive

Short answer needed: outcome of this test for CCOc1cc(/C=C2\N=C(SCC)SC2=O)cc([N+](=O)[O-])c1OC(C)=O ?
inactive

----------
SYSTEM UNDER TEST: C-X-C chemokine receptor type 6 (Homo sapiens) (UniProt O00574)
ASSAY METHOD TEXT: potency against CXCR6 with APJ panel – cell-based, beta-arrestin, DiscoveRx, uHTS hits, dose response (AID 624129)
STUDY CONDITIONS: CXCR6 beta-arrestin (DiscoveRx) antagonist cell assay, CXCR6, run 1, dose range 2
VALUE TYPE: pIC50
Scale: negative log10 of molar concentration, which is what pIC50 denotes.

Some compounds with recorded pIC50:
| COMPOUND | OBSERVED VALUE |
| --- | --- |
| COc1cc(C2C(C#N)=C(N)Oc3n[nH]c(-c4cccs4)c32)cc(OC)c1O (stereo not given) | 4.44 |
| O=C1c2cccc3c([N+](=O)[O-])ccc(c23)C(=O)N1Cc1cccnc1 | 4.60 |
| Cc1ccc2c(c1)C1CN(C)CCC1N2C(=S)NC(=O)c1ccc(Br)cc1 (stereo not given) | 5.16 |
| CCS(=O)(=O)c1ncc(Cl)c(C(=O)Nc2ccc(S(=O)(=O)N3CCCC(C)C3)cc2)n1 (stereo not given) | 5.12 |
| CCC(=O)OCCNc1cc(SCCC(=O)OC)c2nonc2c1[N+](=O)[O-] | 4.67 |

Quick one: pIC50 for CCCNC(=O)c1nnsc1S(=O)(=O)c1ccc(Cl)cc1 ?
4.86

Quick one: pIC50 for O=C(Nc1ccccc1)c1nnsc1S(=O)c1ccc(Cl)cc1 (stereo not given) ?
4.93

Quick one: pIC50 for FC(F)(F)c1cnc(NNC(=S)Nc2cccnc2)c(Cl)c1 ?
4.93

Quick one: pIC50 for COC(=O)/C=C\C(=O)Nc1cccc([N+](=O)[O-])c1 ?
4.74

Quick one: pIC50 for Nc1nc(N)c2c(ccc3c2ccn3Cc2cccc([N+](=O)[O-])c2)n1 ?
4.80

----------
Each entry below carries its recorded IC50.
SYSTEM UNDER TEST: C-X-C chemokine receptor type 6 (Homo sapiens) (UniProt O00574)
ASSAY METHOD TEXT: potency against CXCR6 with APJ panel – cell-based, beta-arrestin, DiscoveRx, uHTS hits, dose response (AID 624129)
STUDY CONDITIONS: CXCR6 beta-arrestin (DiscoveRx) antagonist cell assay, CXCR6, dose range 1, mean IC50 across replicates
State just the number; it will be interpreted in µM.

Some compounds with recorded IC50:
| COMPOUND | OBSERVED VALUE |
| --- | --- |
| COc1cc(/C=C(\C#N)c2nc3ccccc3o2)ccc1O | 35.5 |
| COC(=O)C1=C(c2ccc(-c3ccccc3)c(F)c2)C[C@@H]2CC[C@H]1N2C(=O)N1CCC(C)CC1 | 11.2 |
| CC(Oc1ccc(F)cc1)C(=O)Nc1nc(-c2ccccn2)cs1 (stereo unspecified) | 7.74 |
| O=C1C=CC2(O[C@H](c3ccccc3)[C@@H](c3ccccc3)O2)[C@H](Sc2ccccc2O)C1 | 6.31 |
| Cc1c(CCCl)c(Cl)n2c(nc3ccccc32)c1C#N | 6.38 |

Please state recorded IC50 (tested on C-X-C chemokine receptor type 6 (Homo sapiens) (UniProt O00574)) of Cc1ccc(NC(=O)c2nc(S(=O)(=O)Cc3ccccc3)ncc2Cl)cc1
15.3
